These entries and their values trace back to ChEMBL document CHEMBL1770121.

# Tested on: HepG2
# procedure summary: Antiproliferative activity against human HepG2 cells after 48 hrs by MTT assay
# Type: functional, cell-based
# test parameters: HepG2, 48 h
IC50 under 10 µg/mL gets met, anything at or over 10 µg/mL gets not met.

[Q] Confirm or reject: IC50 of "CCCCCCCCCCCCOc1ccc(C(=O)/C=C/c2c(/C=C/c3ccc(OC)cc3)cc(OC)cc2OC)cc1" lies strictly below 10 µg/mL
[A] not met

[Q] Hi there! Is IC50 for "COc1ccc(/C=C/c2cc(OC)cc(OC)c2/C=C/C(=O)c2ccc(OC)cc2)cc1" below 10 µg/mL, do you know?
[A] met

[Q] Record "Oc1ccc(/C=C/c2cc(O)cc(O)c2)cc1" : is its IC50 strictly below 10 µg/mL?
[A] not met

[Q] Strictly below 10 µg/mL: is that where IC50 of "COc1ccc(/C=C/c2cc(OC)cc(OC)c2/C=C/C(=O)c2ccc(Br)cc2)cc1" sits?
[A] not met

[Q] Please check: IC50 for "CCCCOc1ccc(C(=O)/C=C/c2c(/C=C/c3ccc(OC)cc3)cc(OC)cc2OC)cc1" , strictly under 10 µg/mL or not?
[A] not met

[Q] Given "COc1ccc(/C=C/c2cc(OC)cc(OC)c2/C=C/C(=O)c2ccc(C)cc2)cc1" , is recorded IC50 strictly lower than 10 µg/mL?
[A] met

[Q] Would you kindly verify if IC50 of "CCOc1ccc(C(=O)/C=C/c2c(/C=C/c3ccc(OC)cc3)cc(OC)cc2OC)cc1" is strictly less than 10 µg/mL?
[A] met

[Q] Regarding "COc1ccc(/C=C/c2cc(OC)cc(OC)c2/C=C/C(=O)c2ccccc2)cc1" , kindly confirm whether its IC50 is beneath 10 µg/mL.
[A] met
